Data provenance: patent US20050107455A1

Catalogue of melting point readings, one per entry.
Counter-ions that a name gives are not always drawn.

These recorded examples may help you get a feel for the data.
                                   compound  endpoint_label  endpoint_result
0  COC1c2ccccc2C2CC21C1=NCCN1 (single isomer, unassigned; (+)) (as salt: fumarate) [(+) -XV-1]   melting point    170 to 172 °C
1  CO[C@H]1c2ccccc2C2C[C@]21C1=NCCN1 (mixture of isomers) (as salt: fumarate)   melting point    173 to 175 °C
2  C[C@@H]1[C@H]2c3ccccc3C[C@@]12C1=NCCN1 (racemic) (as salt: fumarate)   melting point    133 to 135 °C
3  c1ccc2c(c1)CC1(C3=NCCN3)CC21 (single isomer, unassigned; (-)) (as salt: hydrochloride) [(−)-XVII-1]   melting point    245 to 247 °C

Now consider the entry below.
melting point for COc1cccc2c1C1C[C@@]1(C1=NCCN1)[C@H]2OC (stereo in doubt) (as salt: fumarate) ? 177 to 179 °C
